# testTarget: T1, IL-18 receptors on HEK-Blue IL-18 reporter cells (UniProt Q13478 19-541; O95256 20-599, limits assumed); also: unit not given here
# T1 sequence (looked up) 1: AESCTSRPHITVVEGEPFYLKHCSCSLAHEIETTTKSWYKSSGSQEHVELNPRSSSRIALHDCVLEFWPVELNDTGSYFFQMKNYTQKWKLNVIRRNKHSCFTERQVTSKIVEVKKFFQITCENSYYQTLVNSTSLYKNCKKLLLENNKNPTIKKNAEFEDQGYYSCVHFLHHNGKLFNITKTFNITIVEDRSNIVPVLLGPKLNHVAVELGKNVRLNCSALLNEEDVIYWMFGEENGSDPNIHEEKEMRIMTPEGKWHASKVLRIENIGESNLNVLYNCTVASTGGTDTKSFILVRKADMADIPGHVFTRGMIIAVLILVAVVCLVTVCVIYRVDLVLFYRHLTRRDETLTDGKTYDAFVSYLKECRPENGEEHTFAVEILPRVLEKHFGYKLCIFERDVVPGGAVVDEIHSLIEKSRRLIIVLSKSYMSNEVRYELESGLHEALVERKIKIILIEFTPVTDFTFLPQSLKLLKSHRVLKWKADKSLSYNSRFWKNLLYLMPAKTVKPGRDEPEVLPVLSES
# T1 sequence (looked up) 2: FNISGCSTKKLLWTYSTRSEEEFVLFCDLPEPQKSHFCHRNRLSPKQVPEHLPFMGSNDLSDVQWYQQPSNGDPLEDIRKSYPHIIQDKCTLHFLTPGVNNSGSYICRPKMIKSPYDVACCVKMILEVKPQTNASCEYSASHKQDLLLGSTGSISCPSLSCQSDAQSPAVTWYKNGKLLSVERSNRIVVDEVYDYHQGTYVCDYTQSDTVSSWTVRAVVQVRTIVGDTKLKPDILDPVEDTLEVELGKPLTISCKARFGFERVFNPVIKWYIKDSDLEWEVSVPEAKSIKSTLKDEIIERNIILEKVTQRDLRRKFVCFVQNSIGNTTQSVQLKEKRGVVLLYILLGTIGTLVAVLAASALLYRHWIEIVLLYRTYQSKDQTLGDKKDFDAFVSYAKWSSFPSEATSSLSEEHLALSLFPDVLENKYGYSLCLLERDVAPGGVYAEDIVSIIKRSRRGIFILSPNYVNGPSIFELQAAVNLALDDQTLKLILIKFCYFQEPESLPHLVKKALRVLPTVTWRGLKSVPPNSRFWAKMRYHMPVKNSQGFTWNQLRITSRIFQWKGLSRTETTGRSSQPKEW
# protocol: cell-based or functional assay
Please use fulfilled whenever HEK-Blue activity, No BP, DF-1,000,000 is not below 0.09, and not fulfilled whenever it is.

See these solved cases before continuing.
IL-18 variant K53G, S55V, R104Y, H109N (ligand) YFGKLESKLSVIRNLNDQVLFIDQGNRPLFEDMTDSDMRDNAPRTIFIISMYGDVQPRGMAVTISVKSEKISTLSSENKIISFKEMNPPDNIKDTKSDIIFFQYSVPGNDNKMQFESSSYEGYFLASEKERDLFKLILKKEDELGDRSIMFTVQNED :: fulfilled
IL-18 variant K53D, S55Q, H109Y (ligand) YFGKLESKLSVIRNLNDQVLFIDQGNRPLFEDMTDSDMRDNAPRTIFIISMYDDQQPRGMAVTISVKSEKISTLSSENKIISFKEMNPPDNIKDTKSDIIFFQRSVPGYDNKMQFESSSYEGYFLASEKERDLFKLILKKEDELGDRSIMFTVQNED :: fulfilled
IL-18 variant S36Q, D40T, K53P, S55L (ligand) YFGKLESKLSVIRNLNDQVLFIDQGNRPLFEDMTDQDMRTNAPRTIFIISMYPDLQPRGMAVTISVKSEKISTLSSENKIISFKEMNPPDNIKDTKSDIIFFQRSVPGHDNKMQFESSSYEGYFLASEKERDLFKLILKKEDELGDRSIMFTVQNED :: not fulfilled
IL-18 variant K53N, S55H, H109F (ligand) YFGKLESKLSVIRNLNDQVLFIDQGNRPLFEDMTDSDMRDNAPRTIFIISMYNDHQPRGMAVTISVKSEKISTLSSENKIISFKEMNPPDNIKDTKSDIIFFQRSVPGFDNKMQFESSSYEGYFLASEKERDLFKLILKKEDELGDRSIMFTVQNED :: fulfilled
IL-18 variant K53H, S55G (ligand) YFGKLESKLSVIRNLNDQVLFIDQGNRPLFEDMTDSDMRDNAPRTIFIISMYHDGQPRGMAVTISVKSEKISTLSSENKIISFKEMNPPDNIKDTKSDIIFFQRSVPGHDNKMQFESSSYEGYFLASEKERDLFKLILKKEDELGDRSIMFTVQNED :: not fulfilled
IL-18 variant T34L, S36V, D40A, N41S, K53G, S55W (ligand) YFGKLESKLSVIRNLNDQVLFIDQGNRPLFEDMLDVDMRASAPRTIFIISMYGDWQPRGMAVTISVKSEKISTLSSENKIISFKEMNPPDNIKDTKSDIIFFQRSVPGHDNKMQFESSSYEGYFLASEKERDLFKLILKKEDELGDRSIMFTVQNED :: fulfilled

Pending binder:
Please tell me: is the binder IL-18 variant K53S, S55Y, P107M (ligand) YFGKLESKLSVIRNLNDQVLFIDQGNRPLFEDMTDSDMRDNAPRTIFIISMYSDYQPRGMAVTISVKSEKISTLSSENKIISFKEMNPPDNIKDTKSDIIFFQRSVMGHDNKMQFESSSYEGYFLASEKERDLFKLILKKEDELGDRSIMFTVQNED at or over 0.09 in terms of HEK-Blue activity, No BP, DF-1,000,000?
fulfilled
